Each entry below lists one item and its recorded pEC50 value.
- TESTED_SYSTEM: human TLR7 (Homo sapiens)
- Sequence (Q9NYK1 27-1049): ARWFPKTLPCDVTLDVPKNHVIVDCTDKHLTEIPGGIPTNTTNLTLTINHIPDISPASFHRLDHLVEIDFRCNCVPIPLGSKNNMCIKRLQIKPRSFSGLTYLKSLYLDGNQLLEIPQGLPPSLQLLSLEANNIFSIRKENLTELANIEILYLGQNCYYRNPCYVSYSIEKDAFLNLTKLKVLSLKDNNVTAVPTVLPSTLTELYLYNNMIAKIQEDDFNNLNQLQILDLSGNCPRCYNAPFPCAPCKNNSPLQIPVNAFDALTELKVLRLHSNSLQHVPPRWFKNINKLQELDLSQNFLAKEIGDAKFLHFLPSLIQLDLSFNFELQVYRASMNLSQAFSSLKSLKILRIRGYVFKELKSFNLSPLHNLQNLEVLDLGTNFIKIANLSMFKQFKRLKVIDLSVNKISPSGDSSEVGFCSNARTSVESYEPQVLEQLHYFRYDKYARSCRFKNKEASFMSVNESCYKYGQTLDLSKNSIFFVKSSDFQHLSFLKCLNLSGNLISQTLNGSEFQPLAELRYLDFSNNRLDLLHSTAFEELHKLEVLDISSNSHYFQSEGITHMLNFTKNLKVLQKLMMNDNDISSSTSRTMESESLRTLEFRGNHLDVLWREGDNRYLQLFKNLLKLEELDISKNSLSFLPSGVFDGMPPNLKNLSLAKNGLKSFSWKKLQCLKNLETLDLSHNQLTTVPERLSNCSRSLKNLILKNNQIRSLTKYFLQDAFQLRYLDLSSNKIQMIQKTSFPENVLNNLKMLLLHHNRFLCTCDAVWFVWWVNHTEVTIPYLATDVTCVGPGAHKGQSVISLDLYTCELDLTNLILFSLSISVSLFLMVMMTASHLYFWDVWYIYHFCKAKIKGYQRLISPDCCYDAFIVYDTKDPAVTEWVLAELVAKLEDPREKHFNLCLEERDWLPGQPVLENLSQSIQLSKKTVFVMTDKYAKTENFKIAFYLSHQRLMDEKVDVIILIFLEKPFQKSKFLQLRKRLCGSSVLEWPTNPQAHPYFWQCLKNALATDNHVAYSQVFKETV
- PROTOCOL_NOTES: Human TLR7 agonist activity assay (HEK-Blue TLR7 SEAP reporter)
- MEASUREMENT_PARAMETERS: HEK-Blue TLR7 cells, 18 h treatment, average where assay performed multiple times, read-out: hTLR7 Agonism EC50
As a rule, pEC50 stands for the negative log10 of the concentration, concentration in M.

Kindly note the recorded pEC50 for CCC[C@@H](CCO)Nc1nc(N)nc2cnn(Cc3ccc(C4CCN(C5CCOCC5)CC4)nc3)c12 , which is 5.81

Record CCCCNc1nc(N)nc2cnn(Cc3cnc(C4CCN(C5CCOCC5)CC4)cc3OC)c12 , field pEC50: 7.66

pEC50 reading for CCC[C@@H](CCO)Nc1nc(N)nc2cnn(Cc3ncc(C4CCN(C5CCOC5)CC4)cc3OC)c12 (single isomer, unassigned) [Compound 211] : 6.91

pEC50 measured on CCC[C@@H](CCO)Nc1nc(N)nc2cnn(Cc3ccc(C4CN(C5CCOCC5)CCN4)cc3OC)c12 (stereo partly drawn) = 7.46

Reported pEC50 of CCC[C@@H](CCO)Nc1nc(N)nc2cnn(Cc3ncc(C4CCN(CCN(C)C)CC4)cc3OC)c12 : 7.39

Further cases:
CCCCNc1nc(N)nc2cnn(Cc3ncc(C4CCN(C=O)CC4)cc3OC)c12 yielded pEC50 of 6.74

Per the record, CCCCNc1nc(N)nc2c(C)nn(Cc3ncc(C4CCN(C(C)C)CC4)cc3OC)c12 has pEC50 of 6.71

pEC50 reading for COc1cc(C2CCN(C3CCOCC3)CC2)cnc1Cn1ncc2nc(N)nc(NCc3noc(C)n3)c21 : 6.93

Lookup result for CCC[C@@H](CCO)Nc1nc(N)nc2cnn(Cc3ncc(C4CCN(Cc5ncn(C)n5)CC4)cc3OC)c12 ; measured pEC50: 7.04

The reported pEC50 of the compound CCC[C@@H](CCO)Nc1nc(N)nc2cnn(Cc3ccc(C4CN(CCO)CCN4)cc3OC)c12 (stereo partly drawn) was 6.86

The compound CCC[C@@H](CCO)Nc1nc(N)nc2cnn(Cc3ncc(C4CCN(C5CCN(C)CC5)CC4)cc3OC)c12 showed pEC50 equal to 7.25

The value of pEC50 measured for the compound CCCCNc1nc(N)nc2cnn(Cc3cc(F)c(N4CCN(S(C)(=O)=O)CC4)cc3OC)c12 turned out to be 7.07

# pEC50 (compound: CCCCNc1nc(N)nc2c(C)nn(Cc3ncc(C4CCNCC4)cc3OC)c12 ) is 6.26

// pEC50 lookup, compound = CCC[C@@H](CCO)Nc1nc(N)nc2cnn(Cc3nc(C4CCN(C(C)C)CC4)ccc3OC)c12 , result: 6.76

The compound listed as CCC[C@@H](CCO)Nc1nc(N)nc2cnn(Cc3ncc(C4C[C@@H](C#N)CN4)cc3OC)c12 (mixture of isomers) shows pEC50 equal to 6.40

----------
- TESTED_SYSTEM: UniProt:Q9NYK1
- PROTOCOL_NOTES: Human TLR7 agonist activity assay (HEK-Blue TLR7 SEAP reporter)
- MEASUREMENT_PARAMETERS: HEK-Blue TLR7 cells, 18 h treatment, average where assay performed multiple times, read-out: hTLR7 Agonism EC50
- Method: This procedure describes a method for assaying human TLR7 (hTLR7) agonist activity of the compounds disclosed in this specification. HEK-Blue™ TLR7 cells were added to each well of a 384-well tissue-culture plate (15,000 cells per well) and incubated 16-18 h at 37° C., 5% CO2. […] After 18 h treatment ten microliters of freshly-prepared Quanti-Blue™ reagent (Invivogen) was added to each well, incubated for 30 min (37° C., 5% CO2) and SEAP levels measured using an Envision plate reader (OD=620 nm). […]
METRIC_NAME: pEC50
pEC50 here is simply -log10 of the concentration when that concentration is written in mol/L.

Worked cases, answers included:
Value of pEC50 reported for the molecule CCC[C@@H](CCO)Nc1nc(N)nc2c(C)nn(Cc3cnc(C4CCN(C5CCOCC5)CC4)cc3OC)c12 is 6.77

Query CCCCNc1nc(N)nc2cnn(Cc3ncc(C4CCNCC4)cc3OC)c12 yields pEC50 of 7.25

Reported pEC50 for COc1cc(C2CCN(C3CNC3)CC2)cnc1Cn1ncc2nc(N)nc(NCC3CC4(CC4)C3)c21 was 6.65

Noted for CCC[C@@H](CCO)Nc1nc(N)nc2cnn(Cc3ncc(C4CCN(CC(C)(C)O)CC4)cc3OC)c12 : its pEC50 reads 7.82

Sample CCC[C@@H](CCO)Nc1nc(N)nc2cnn(Cc3ccc(C4CNCCN4)cc3OC)c12 (some centres unmarked) ; pEC50 observed: 7.17

Others:
Entry CCC[C@@H](CCO)Nc1nc(N)nc2cnn(Cc3cnc(C4CCN(CC(C)(C)O)CC4)cc3OC)c12 — recorded pEC50 = 8.32

The reported value for CCCCNc1nc(N)nc2cnn(Cc3ncc(C4CCN(C5COC5)CC4)cc3OC)c12 in terms of pEC50 is 6.92

Noted for CCC[C@@H](CCO)Nc1nc(N)nc2cnn(Cc3ncc(C4CCCCCN4)cc3OC)c12 (mixture of isomers) : its pEC50 reads 7.05

----------
- TESTED_SYSTEM: human TLR7 (Homo sapiens, UniProt Q9NYK1)
- PROTOCOL_NOTES: Human TLR7 agonist activity assay (HEK-Blue TLR7 SEAP reporter)
- MEASUREMENT_PARAMETERS: HEK-Blue TLR7 cells, 18 h treatment, average where assay performed multiple times, read-out: hTLR7 Agonism EC50
A collection of molecules and their measured pEC50
Entry type: numeric. Quantity: pEC50, the -log10 of concentration in molar units.

So, COc1cc(C2CCN(C(=O)CCN(C)C)CC2)cnc1Cn1ncc2nc(N)nc(NCC3CC4(CC4)C3)c21 ? Its pEC50 was 6.70

More entries:
# pEC50 of CCCCNc1nc(N)nc2cnn(Cc3ncc(C4CCN(C(C)C)CC4)cc3OC)c12 = 7.33

# molecule CCCCNc1nc(N)nc2cnn(Cc3ncc(C4=CC(C)(C)NC(C)(C)C4)cc3OC)c12 ; its pEC50 = 6.30

Measured pEC50 of CCC[C@@H](CCO)Nc1nc(N)nc2cnn(Cc3ccc(C4CN(C(C)C)CCN4)cc3OC)c12 (some centres unmarked) [Compound 182] : 8.17

The value of pEC50 measured for the molecule CCC[C@@H](CCO)Nc1nc(N)nc2cnn(Cc3nc(C4CCN(CCO)CC4)ccc3OC)c12 turned out to be 6.54

molecule CCC[C@@H](CCO)Nc1nc(N)nc2cnn(Cc3nc(C4CCN(C5CCOCC5)CC4)ccc3OC)c12 , pEC50 observed: 7.07

The recorded pEC50 for CCCCNc1nc(N)nc2cnn(Cc3cc(F)c(N4CCNCC4)cc3OC)c12 is 6.71

CCCCNc1nc(N)nc2cnn(Cc3ncc(C4CCN(CC(N)=O)CC4)cc3OC)c12 yielded pEC50 of 6.78
